# tgt: B. taurus (heart) complex I (Bos taurus, UniProt P03887+P17694+P42026)
# Sequence (P03887 whole entry): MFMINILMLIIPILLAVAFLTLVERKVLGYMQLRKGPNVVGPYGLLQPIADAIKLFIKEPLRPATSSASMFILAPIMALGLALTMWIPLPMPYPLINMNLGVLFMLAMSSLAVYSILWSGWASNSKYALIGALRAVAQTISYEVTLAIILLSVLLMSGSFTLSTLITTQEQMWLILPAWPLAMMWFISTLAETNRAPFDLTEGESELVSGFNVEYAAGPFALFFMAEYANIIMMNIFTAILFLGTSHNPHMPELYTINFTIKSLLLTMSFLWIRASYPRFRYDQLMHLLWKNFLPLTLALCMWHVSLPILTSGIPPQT
# Sequence (P17694 34-463): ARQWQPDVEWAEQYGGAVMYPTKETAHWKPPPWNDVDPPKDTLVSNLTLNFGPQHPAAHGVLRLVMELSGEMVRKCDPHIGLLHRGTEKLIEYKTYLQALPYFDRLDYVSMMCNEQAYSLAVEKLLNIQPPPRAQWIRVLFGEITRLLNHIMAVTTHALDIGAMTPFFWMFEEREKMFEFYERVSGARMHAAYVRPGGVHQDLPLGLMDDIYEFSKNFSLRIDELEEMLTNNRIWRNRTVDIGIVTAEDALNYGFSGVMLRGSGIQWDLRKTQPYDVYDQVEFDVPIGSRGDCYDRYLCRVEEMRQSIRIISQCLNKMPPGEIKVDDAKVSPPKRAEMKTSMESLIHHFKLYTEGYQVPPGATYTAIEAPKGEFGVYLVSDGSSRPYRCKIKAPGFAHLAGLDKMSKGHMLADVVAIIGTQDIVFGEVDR
# Sequence (P42026 38-216): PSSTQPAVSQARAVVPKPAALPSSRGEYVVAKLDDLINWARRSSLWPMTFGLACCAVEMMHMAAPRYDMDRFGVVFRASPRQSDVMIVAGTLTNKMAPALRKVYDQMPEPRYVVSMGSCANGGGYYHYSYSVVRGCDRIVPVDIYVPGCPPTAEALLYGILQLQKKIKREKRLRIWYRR
# run.description: biochemical
# Assay type: biochemical
# stated.conditions: B. taurus; dose 1.5 µM; Mean of replicates; read-out: Complex I activity, dose-response data
quantity.name: activity at 1.5 µM (%)
Could you give me the number in %? Just the number is fine.

Which value of activity at 1.5 µM has been reported for CC(C)Cc1ccc(C(C)c2nc3ccccc3n2C)cc1 (stereo not shown) [NPD8790] in the records?
107

What do you have for COc1cc2c(cc1OC)C(c1ccc(-c3ccc(Cl)c(Cl)c3)o1)=NCC2 [NPD3577] ?
100

How about this compound: COc1cc2c(cc1OC)C(/C=C/c1ccc(N(C)C)cc1)=NCC2 [NPD6303]
93.1

Now consider COc1cc2c(cc1OC)C(C(C)c1ccc(CC(C)C)cc1)=NCC2 (stereo not shown) [NPD10504] and answer again.
96.4

The measurements presented in this section are drawn from paper PMC11079024.
